Listing of entries alongside the reported pIC50.
molecular target: human acetyl-CoA carboxylase 2 (ACC2) (Homo sapiens, UniProt O00763); construct: The cDNA encoding amino acids 144 to 2458 of human acetyl-CoA carboxylase 2; made in house; host or cells: Sf9 insect cells (baculovirus, pFastBac1); test: Acetyl-CoA carboxylase enzyme assay (malonyl-CoA formation by LC/MS/MS); format: biochemical; settings: recombinant human ACC2 (aa 144-2458); read-out: IC50 ACC2
Sequence (O00763 144-2458): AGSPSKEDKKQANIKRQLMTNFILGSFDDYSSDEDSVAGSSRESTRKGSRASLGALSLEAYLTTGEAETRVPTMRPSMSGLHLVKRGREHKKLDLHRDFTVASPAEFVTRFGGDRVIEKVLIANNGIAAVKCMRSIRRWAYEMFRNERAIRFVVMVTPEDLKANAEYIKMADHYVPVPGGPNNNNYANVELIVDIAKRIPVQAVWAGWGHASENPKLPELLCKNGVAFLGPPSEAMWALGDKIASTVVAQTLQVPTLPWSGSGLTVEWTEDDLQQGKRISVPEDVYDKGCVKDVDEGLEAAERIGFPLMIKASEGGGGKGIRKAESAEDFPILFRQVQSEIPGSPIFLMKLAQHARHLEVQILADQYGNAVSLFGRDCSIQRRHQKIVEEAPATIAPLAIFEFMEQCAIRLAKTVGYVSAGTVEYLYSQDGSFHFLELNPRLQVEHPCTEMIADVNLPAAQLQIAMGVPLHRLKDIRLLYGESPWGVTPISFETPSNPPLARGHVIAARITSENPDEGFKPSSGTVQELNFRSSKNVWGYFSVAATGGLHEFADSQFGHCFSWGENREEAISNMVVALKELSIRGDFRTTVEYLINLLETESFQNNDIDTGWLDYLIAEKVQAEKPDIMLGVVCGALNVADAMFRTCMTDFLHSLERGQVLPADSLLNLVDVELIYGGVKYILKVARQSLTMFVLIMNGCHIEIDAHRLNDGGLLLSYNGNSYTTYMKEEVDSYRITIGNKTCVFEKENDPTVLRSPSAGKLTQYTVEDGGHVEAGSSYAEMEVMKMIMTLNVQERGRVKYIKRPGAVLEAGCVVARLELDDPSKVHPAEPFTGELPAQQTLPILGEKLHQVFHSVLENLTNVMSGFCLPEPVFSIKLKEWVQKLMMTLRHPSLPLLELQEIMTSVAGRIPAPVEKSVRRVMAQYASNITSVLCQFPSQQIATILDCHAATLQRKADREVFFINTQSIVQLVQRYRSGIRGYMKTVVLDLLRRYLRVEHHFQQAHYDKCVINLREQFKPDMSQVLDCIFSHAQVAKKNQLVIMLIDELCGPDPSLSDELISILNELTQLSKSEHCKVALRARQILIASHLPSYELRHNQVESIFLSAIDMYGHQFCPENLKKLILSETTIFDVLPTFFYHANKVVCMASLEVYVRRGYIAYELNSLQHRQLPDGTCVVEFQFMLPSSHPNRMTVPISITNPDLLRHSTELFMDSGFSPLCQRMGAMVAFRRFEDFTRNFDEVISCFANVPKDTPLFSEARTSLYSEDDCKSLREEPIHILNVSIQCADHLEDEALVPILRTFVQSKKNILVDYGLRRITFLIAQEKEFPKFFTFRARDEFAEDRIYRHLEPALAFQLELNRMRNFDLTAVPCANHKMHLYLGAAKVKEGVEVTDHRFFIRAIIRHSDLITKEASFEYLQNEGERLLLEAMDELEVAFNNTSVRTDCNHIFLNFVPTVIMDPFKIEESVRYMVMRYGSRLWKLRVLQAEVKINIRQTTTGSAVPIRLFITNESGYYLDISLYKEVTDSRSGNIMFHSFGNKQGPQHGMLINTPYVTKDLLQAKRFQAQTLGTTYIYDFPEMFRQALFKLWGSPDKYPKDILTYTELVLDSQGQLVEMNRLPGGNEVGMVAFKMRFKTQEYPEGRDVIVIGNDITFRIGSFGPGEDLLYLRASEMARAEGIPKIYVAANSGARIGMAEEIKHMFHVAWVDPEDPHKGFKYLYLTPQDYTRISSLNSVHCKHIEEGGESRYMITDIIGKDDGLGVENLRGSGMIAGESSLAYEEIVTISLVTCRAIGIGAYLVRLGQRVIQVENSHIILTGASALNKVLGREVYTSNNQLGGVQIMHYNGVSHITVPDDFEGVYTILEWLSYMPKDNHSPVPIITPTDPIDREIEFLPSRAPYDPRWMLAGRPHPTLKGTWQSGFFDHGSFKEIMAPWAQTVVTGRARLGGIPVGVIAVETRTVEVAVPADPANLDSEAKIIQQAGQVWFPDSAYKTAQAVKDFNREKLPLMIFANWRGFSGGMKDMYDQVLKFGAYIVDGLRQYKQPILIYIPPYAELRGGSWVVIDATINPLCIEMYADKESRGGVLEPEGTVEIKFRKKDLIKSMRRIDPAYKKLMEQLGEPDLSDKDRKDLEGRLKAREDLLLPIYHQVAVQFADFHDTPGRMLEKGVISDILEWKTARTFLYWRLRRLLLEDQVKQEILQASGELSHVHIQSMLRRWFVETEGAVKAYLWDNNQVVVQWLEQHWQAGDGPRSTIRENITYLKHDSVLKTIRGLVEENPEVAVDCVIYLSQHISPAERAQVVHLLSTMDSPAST
pIC50: −log10 of the molar value.
Property label: pIC50

>>> endpoint_result("CCN(C)C(=O)[C@H]1CC[C@H](NS(=O)(=O)c2ccc3cc(-c4ccc(CCC(=O)OC)cc4)n(C)c3c2)CC1 [Example 364]")
6.85
>>> endpoint_result("O=C(Nc1cccc(C(F)(F)F)c1)[C@H]1CC[C@H](NS(=O)(=O)c2ccc3[nH]c(-c4ccccc4)nc3c2)CC1 [Example 648]")
5.74
>>> endpoint_result("COC(=O)CCc1ccc(-c2c(Cl)c3ccc(S(=O)(=O)N[C@H]4CC[C@H](C(=O)N5CCCCC5)CC4)cc3n2C)cc1 [Example 360]")
7.46
>>> endpoint_result("O=S(=O)(Nc1ccc(-c2nnc(-c3ccccc3)o2)cc1)c1ccc2nc(-c3ccccc3)[nH]c2c1 [Example 518]")
5.45
>>> endpoint_result("COCCc1ccc(-c2cc3ccc(S(=O)(=O)N[C@H]4CC[C@H](C(=O)N5CCOC[C@@H]5C)CC4)cc3[nH]2)cc1 [Example 30]")
8.00
>>> endpoint_result("Cc1cn(C)c2ncc(S(=O)(=O)N[C@H]3CC[C@H](C(=O)N[C@H](C)c4ccc(F)cc4)CC3)cc12 [Example 17]")
7.19
>>> endpoint_result("COC[C@@H](NC(=O)[C@H]1CC[C@H](NS(=O)(=O)c2ccc3cc(-c4ccccc4)n(C)c3c2)CC1)c1ccccc1 [Example 423]")
7.40

* * *

molecular target: human acetyl-CoA carboxylase 2 (ACC2) (Homo sapiens); construct: The cDNA encoding amino acids 144 to 2458 of human acetyl-CoA carboxylase 2; made in house; host or cells: Sf9 insect cells (baculovirus, pFastBac1); assay: Acetyl-CoA carboxylase enzyme assay (malonyl-CoA formation by LC/MS/MS); assay type: biochemical; conditions: recombinant human ACC2 (aa 144-2458); read-out: IC50 ACC2
pIC50: −log10 of the molar value.
Kind request: treat 7 as inclusive, so pIC50 at 7 or higher is Satisfied, anything lower is Not satisfied.

>>> discrete_label("C[C@@H](NC(=O)[C@H]1CC[C@H](NS(=O)(=O)c2cnc3c(c2)OCCN3C)CC1)c1ccc(F)cc1")
"Not satisfied"
>>> discrete_label("O=C([C@H]1CC[C@H](NS(=O)(=O)c2ccc3c(c2)NCCC3)CC1)N1CCOCC1c1ccccc1 (stereo partly shown)")
"Satisfied"
>>> discrete_label("O=C1NCCCC[C@@H]1NC(=O)[C@H]1CC[C@H](NS(=O)(=O)c2ccc3[nH]c(-c4ccccc4)nc3c2)CC1")
"Satisfied"
>>> discrete_label("Cn1c(-c2ccccc2)cc2ccc(S(=O)(=O)N[C@H]3CC[C@H](C(=O)N4CCC[C@@H](C(C)(C)O)C4)CC3)cc21")
"Satisfied"

* * *

target: human acetyl-CoA carboxylase 2 (ACC2) (Homo sapiens, UniProt O00763); construct: The cDNA encoding amino acids 144 to 2458 of human acetyl-CoA carboxylase 2; made in house; host or cells: Sf9 insect cells (baculovirus, pFastBac1); test: Acetyl-CoA carboxylase enzyme assay (malonyl-CoA formation by LC/MS/MS); type: biochemical; settings: recombinant human ACC2 (aa 144-2458); read-out: IC50 ACC2
Below, each entry is listed alongside its reported IC50.
Property label: IC50 (nM)

>>> endpoint_result("CC(C)OC(=O)c1ccc(NS(=O)(=O)c2ccc3nc(-c4ccc(S(C)(=O)=O)cc4)[nH]c3c2)cc1")
838
>>> endpoint_result("CC(NC(=O)[C@H]1CC[C@H](NS(=O)(=O)c2cnc3ccccc3c2)CC1)c1ccc(F)cc1F (stereo partly shown)")
240
>>> endpoint_result("CC(C)OC(=O)c1ccc(NS(=O)(=O)c2ccc3[nH]c(Nc4cccc(-n5ccsc5=O)c4)nc3c2)cc1")
737
>>> endpoint_result("COCCOc1ccc(-c2cc3ccc(S(=O)(=O)N[C@H]4CC[C@H](C(=O)N5CCOC(C)(C)C5)CC4)cc3n2C)cc1")
130

* * *

target: human acetyl-CoA carboxylase 2 (ACC2) (Homo sapiens, UniProt O00763); construct: The cDNA encoding amino acids 144 to 2458 of human acetyl-CoA carboxylase 2; made in house; host or cells: Sf9 insect cells (baculovirus, pFastBac1); test: Acetyl-CoA carboxylase enzyme assay (malonyl-CoA formation by LC/MS/MS); assay type: biochemical; conditions: recombinant human ACC2 (aa 144-2458); read-out: IC50 ACC2
pIC50: −log10 of the molar value.
A collection of molecules and their measured pIC50
Property label: pIC50

>>> endpoint_result("C[C@@H](NC(=O)[C@H]1CC[C@H](NS(=O)(=O)c2ccc3[nH]c(C4CC4)nc3c2)CC1)c1ccccc1")
7.10
>>> endpoint_result("CN1CCN(c2ccc(Nc3nc4cc(S(=O)(=O)N[C@H]5CC[C@H](c6nnc(C(C)(C)C)o6)CC5)ccc4[nH]3)cc2)CC1")
7.33
>>> endpoint_result("CCN(C)C(=O)[C@H]1CC[C@H](NS(=O)(=O)c2ccc3[nH]c(Nc4ccccc4)nc3c2)CC1")
6.90
>>> endpoint_result("COCCNC(=O)[C@H]1CC[C@H](NS(=O)(=O)c2ccc3[nH]c(-c4ccccc4)nc3c2)CC1")
5.77

* * *

pIC50 values for the compounds below.
molecular target: human acetyl-CoA carboxylase 2 (ACC2) (Homo sapiens); construct: The cDNA encoding amino acids 144 to 2458 of human acetyl-CoA carboxylase 2; made in house; host or cells: Sf9 insect cells (baculovirus, pFastBac1); test: Acetyl-CoA carboxylase enzyme assay (malonyl-CoA formation by LC/MS/MS); format: biochemical; settings: recombinant human ACC2 (aa 144-2458); read-out: IC50 ACC2
pIC50: −log10 of the molar value.
Property label: pIC50

>>> endpoint_result("CC(C)OC(=O)c1ccc(NS(=O)(=O)c2ccc3[nH]c(Nc4cccc(C#N)c4)nc3c2)cc1")
6.78
>>> endpoint_result("COc1ccc(-c2nc3ccc(S(=O)(=O)Nc4ccc(C(=O)OC(C)C)cc4)cc3[nH]2)cc1OC")
5.92
>>> endpoint_result("O=C([C@H]1CC[C@H](NS(=O)(=O)c2ccc3[nH]c(Nc4ccccc4)nc3c2)CC1)N1CCOCC1")
6.92
>>> endpoint_result("CCCN(C)C(=O)[C@H]1CC[C@H](NS(=O)(=O)c2ccc3[nH]c(-c4ccc(N5CCN(C)CC5)cc4)nc3c2)CC1")
7.32
>>> endpoint_result("CC(C)(C)c1nnc([C@H]2CC[C@H](NS(=O)(=O)c3ccc4[nH]c(-c5ccc(F)cc5)nc4c3)CC2)o1")
5.96
>>> endpoint_result("Cn1c(-c2ccccc2)cc2ccc(S(=O)(=O)N[C@H]3CC[C@H](C(=O)N4CCCOCC4)CC3)cc21")
6.89
>>> endpoint_result("COCc1ccc(-c2cc3ccc(S(=O)(=O)N[C@H]4CC[C@H](C(=O)N5CCNC(C(F)(F)F)C5)CC4)cc3n2C)cc1 (stereo partly shown)")
7.52

* * *

molecular target: human acetyl-CoA carboxylase 2 (ACC2) (Homo sapiens, UniProt O00763); construct: The cDNA encoding amino acids 144 to 2458 of human acetyl-CoA carboxylase 2; made in house; host or cells: Sf9 insect cells (baculovirus, pFastBac1); test: Acetyl-CoA carboxylase enzyme assay (malonyl-CoA formation by LC/MS/MS); assay type: biochemical; settings: recombinant human ACC2 (aa 144-2458); read-out: IC50 ACC2
pIC50: −log10 of the molar value.
Note to self: values exactly at 7 are met. So pIC50 at or above 7 is met, below is not met.

>>> discrete_label("C[C@@H](NC(=O)[C@H]1CC[C@H](NS(=O)(=O)c2ccc3[nH]c(-c4cccnc4)nc3c2)CC1)c1ccccc1 [Example 281]")
"met"
>>> discrete_label("C[C@@H](NC(=O)[C@H]1CC[C@H](NS(=O)(=O)c2ccc3c(c2)CCCN3)CC1)c1ccc(F)cc1 [Example 152]")
"met"
>>> discrete_label("O=C(NCCO)[C@H]1CC[C@H](NS(=O)(=O)c2ccc3[nH]c(-c4ccccc4)nc3c2)CC1 [Example 621]")
"not met"
>>> discrete_label("CC(C)(C)OC(=O)N1CCN(C(=O)[C@H]2CC[C@H](NS(=O)(=O)c3ccc4oc5ccccc5c4c3)CC2)[C@@H](c2ccccc2)C1 [Example 255]")
"met"
>>> discrete_label("COCCc1ccc(-c2cc3ccc(S(=O)(=O)N[C@H]4CC[C@H](C(=O)N5CCOC[C@@H]5C)CC4)cc3n2C)cc1 [Example 444]")
"met"
>>> discrete_label("COCCOc1ccc(-c2cc3ccc(S(=O)(=O)N[C@H]4CC[C@H](C(=O)N5CCOC[C@@H]5C(C)C)CC4)cc3n2C)cc1 [Example 447]")
"met"
>>> discrete_label("CC(C)[C@H]1COCCN1C(=O)[C@H]1CC[C@H](NS(=O)(=O)c2ccc3c(Cl)c(-c4ccc(CCC(=O)O)cc4)n(C)c3c2)CC1 [Example 25]")
"met"
>>> discrete_label("CCC1CCc2cc(S(=O)(=O)N[C@H]3CC[C@H](C(=O)N[C@H](C)c4ccc(F)cc4)CC3)ccc2N1 (stereo partly drawn) [Example 77]")
"met"
>>> discrete_label("CCOc1ccc2cc(S(=O)(=O)N[C@H]3CC[C@H](C(=O)N[C@H](C)c4ccc(F)cc4)CC3)ccc2n1 [Example 36]")
"met"
>>> discrete_label("Cn1ccc2cc(S(=O)(=O)N[C@H]3CC[C@H](C(=O)N[C@@H](CO)c4ccccc4)CC3)ccc21 [Example 671]")
"not met"
>>> discrete_label("Cc1nc2cc(S(=O)(=O)N[C@H]3CC[C@H](c4nnc(C(C)(C)C)o4)CC3)ccc2[nH]1 [Example 615]")
"not met"
>>> discrete_label("C[C@@H](NC(=O)[C@H]1CC[C@H](NS(=O)(=O)c2ccc3cc(CCO)[nH]c3c2)CC1)c1ccc(F)cc1 [Example 305]")
"met"
>>> discrete_label("COc1ccc(Nc2nc3cc(S(=O)(=O)N[C@H]4CC[C@H](c5nnc(C(C)(C)C)o5)CC4)ccc3[nH]2)cc1 [Example 596]")
"not met"
>>> discrete_label("Cn1c(C2CC2)cc2ccc(S(=O)(=O)N[C@H]3CC[C@](C)(C(=O)N4CCOCC4)CC3)cc21 [Example 24]")
"not met"
>>> discrete_label("Cc1nc2cc(S(=O)(=O)NC3CCC(c4nnc(C(C)C)o4)CC3)ccc2[nH]1 (stereo not drawn) [Example 613]")
"not met"
>>> discrete_label("C[C@@H](NC(=O)[C@H]1CC[C@H](NS(=O)(=O)c2ccc3[nH]c([C@@H]4CCCO4)nc3c2)CC1)c1ccc(F)cc1 [Example 114]")
"not met"
>>> discrete_label("CCOC(=O)N1CCNc2ncc(S(=O)(=O)N[C@H]3CC[C@H](C(=O)N[C@H](C)c4ccc(F)cc4)CC3)cc21 [Example 209]")
"met"
